system: CEM cells HIV-1 protection, formazan growth assay; assay: NCI AIDS Antiviral Assay; settings: measured here: growth of uninfected CEM cells
So basically, if IC50 comes in under 100 µM it's fulfilled, and if it's 100 µM or more it's not fulfilled.

compound: O=c1[nH]c2cn(-c3ccccc3)nc2c(=O)n1O
assignedClass: fulfilled

compound: CC1=NN(c2ccccc2)C(=O)/C1=C\N1CC(=O)NC1=S
assignedClass: fulfilled

compound: CC(=O)OC1C(O[C@H]2CC[C@]34O[C@]35CC[C@]3(C)C(C6(C)CC[C@@H](C(C)(C)O)O6)[C@@H](O)CC3(C)[C@@H]5CC(OC3OC(CO)C(O)C(O)C3O)C4C2(C)C)OCC(O)C1O (stereo partly drawn)
assignedClass: not fulfilled

compound: C=C(C)c1nc(Oc2ccccc2)nc(Oc2ccccc2)n1
assignedClass: fulfilled

compound: Cc1cccnc1/N=C/c1c(O)n(C)c(=O)[nH]c1=O
assignedClass: not fulfilled

compound: Nc1cccc2cn[nH]c12
assignedClass: not fulfilled

compound: Cc1cccc(C)c1NC(=O)CCC/C(CC(=O)c1ccc(F)cc1)=N\NC(=O)C(=O)NN
assignedClass: not fulfilled

compound: CC1=NNC(=O)C1C1C(=O)NN=C(c2c[nH]c3ccccc23)C1Br (stereo not drawn)
assignedClass: fulfilled

====

system: CEM cells HIV-1 protection, formazan growth assay; assay: NCI AIDS Antiviral Assay; settings: measured here: growth of uninfected CEM cells

compound: Cc1n[nH]c(=O)n1/N=C\CC/C=N\n1c(C)n[nH]c1=O
assaySystem: CEM cells HIV-1 protection, formazan growth assay
valueUnit: µM
cmp: >
IC50: 200
//
compound: CCOC12SC(=Nc3ccc(C)cc3)NN1C(=S)N(C)N=C2C (stereo not given)
assaySystem: CEM cells HIV-1 protection, formazan growth assay
valueUnit: µM
cmp: >
IC50: 200
//
compound: O=C(NP(=O)(N1CC1)N1CC1)OCc1ccccc1
assaySystem: CEM cells HIV-1 protection, formazan growth assay
valueUnit: µM
cmp: >
IC50: 200
//
compound: CCC1Sc2cc(OC)cc(NC=O)c2NC1=O (stereo not given)
assaySystem: CEM cells HIV-1 protection, formazan growth assay
valueUnit: µM
cmp: >
IC50: 200
//
compound: CCN(CC)CCOCCn1c2c(c3ccccc31)CCCC2
assaySystem: CEM cells HIV-1 protection, formazan growth assay
valueUnit: µM
cmp: =
IC50: 30.9
//
compound: c1csc(-c2cc(-c3cccs3)c(-c3cccs3)s2)c1
assaySystem: CEM cells HIV-1 protection, formazan growth assay
valueUnit: µM
cmp: =
IC50: 38.9
//
compound: N=c1nnc2ccc(Cl)cc2n1O
assaySystem: CEM cells HIV-1 protection, formazan growth assay
valueUnit: µM
cmp: =
IC50: 33.1
//
compound: CC(C)(C)OC(=O)NC(Cc1cc(C(C)(C)C)c(O)c(C(C)(C)C)c1)C(=O)O (stereo not given)
assaySystem: CEM cells HIV-1 protection, formazan growth assay
valueUnit: µM
cmp: =
IC50: 61.7
//
compound: CC[CH2][Sn]([CH2]CC)([O]C(=O)Cc1ccc(F)cc1)[O][Sn]([CH2]CC)([CH2]CC)[O]C(=O)Cc1ccc(F)cc1
assaySystem: CEM cells HIV-1 protection, formazan growth assay
valueUnit: µM
cmp: =
IC50: 3.24
//
compound: COC1(C)OC23C(=O)N(C)C(=O)N(C)C2(O1)N(C(C)=O)C(=O)N3C (stereo not given)
assaySystem: CEM cells HIV-1 protection, formazan growth assay
valueUnit: µM
cmp: >
IC50: 200

====

test system: CEM cells HIV-1 protection, formazan growth assay; experiment: NCI AIDS Antiviral Assay; conditions: measured here: growth of uninfected CEM cells
pIC50: −log10 of the molar value.
The entries below come with measured pIC50 values attached.

compound: CO[C@@]1(c2ccccc2)O[C@H]2OCCC2[C@H]1c1ccc(Cl)cc1 (stereo partly specified)
pIC50: < 4.94
--
compound: CC(C)(C)NNC(=O)/C(=C/c1ccc([N+](=O)[O-])cc1)NC(=O)c1ccccc1
pIC50: < 5.15
--
compound: O=C1c2cc(Cl)ccc2-n2c(noc2=O)C2CSCN12 (stereo unspecified)
pIC50: < 3.70
--
compound: COC(=O)C(=O)C(CC(=O)Nc1c(C)cccc1C)C(=O)OC (stereo unspecified)
pIC50: < 3.11
--
compound: CC1(C)O[C@]2(C=C[C@@H]1O)CCCCO2
pIC50: < 3.60
--
compound: O=C(O)Cn1c(=O)ccc2ccccc21
pIC50: < 3.70

====

system: CEM cells HIV-1 protection, formazan growth assay; assay: NCI AIDS Antiviral Assay;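 active = compounds giving half or more protection of infected cells from virus-caused growth loss, again on retest; inactive = the rest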
Labels: 1 = active, -1 = inactive

compound: CC(=O)OCCCCn1cnc2c(Cl)nc(Nc3ccccc3)nc21
assignedClass: -1

compound: CC12CCC(CC1=O)C2(C)CCC(N)=O (stereo unspecified)
assignedClass: -1

compound: COc1ccc2c(c1)CCc1c-2n(CCN(C)C)c2ccc(OC)cc12
assignedClass: -1

compound: CN(O)C1CC(=O)OC1CO[Si](C)(C)C(C)(C)C (stereo unspecified)
assignedClass: -1

compound: c1ccc2c(c1)nc1n2C2CCC(C2)N1 (stereo unspecified)
assignedClass: -1

compound: CC1(COc2ccccc2OCC2(C)CO2)CO1 (stereo unspecified)
assignedClass: -1

compound: O=C(C(=Cc1ccc(F)cc1)C(=O)c1ccccc1)c1ccccc1
assignedClass: -1

compound: CCCCCCCCCCCCCCCCOC[C@H](COC(c1ccccc1)(c1ccccc1)c1ccccc1)O[P+](=S)OC (stereo partly specified)
assignedClass: -1

compound: COc1ccc(/C(C)=C2\CCCN(Cc3ccccc3)C2)cc1
assignedClass: -1

compound: COc1ccc2c(c1)C(=O)C1CCC(=O)N1C2c1ccc2c(c1)OCO2 (stereo unspecified)
assignedClass: -1

compound: CCOC(=O)CC1NC(=O)CS1 (stereo unspecified)
assignedClass: -1

compound: CC1(C)[C@@H]2C[C@H]1c1cnc(-c3ccccn3)cc1[C@H]2C(O)[C@@H]1c2cc(-c3ccccn3)ncc2[C@H]2C[C@@H]1C2(C)C (stereo partly specified)
assignedClass: -1

compound: COCCNc1cncc(C(N)=O)c1
assignedClass: -1

compound: CCOc1ccccc1NC(=O)C1=C(C)NC(C)=C(C(=O)Nc2ccccc2OCC)C1c1ccc2c(c1)OCO2
assignedClass: -1

compound: COC(=O)[C@H](Cc1c[nH]c2ccccc12)NC(=O)OCC1OC(n2cc(C)c(=O)[nH]c2=O)CC1N=[N+]=[N-] (stereo partly specified)
assignedClass: -1

compound: CC(=O)NS(=O)(=O)c1ccc(NC(=O)COC(=O)c2cccc3c(=O)c4ccccc4[nH]c23)cc1
assignedClass: 1

compound: CN1CCCOC(c2ccc(Cl)cc2)O1 (stereo unspecified)
assignedClass: -1

compound: CCCCCCSSCCCCCC
assignedClass: -1

compound: Cc1cc(Cl)ccc1N=C1NC(=O)C(CC(=O)Nc2cccc(C)c2C)S1 (stereo unspecified)
assignedClass: -1

compound: Nc1cccc2cn[nH]c12
assignedClass: -1

compound: NNC(=O)C(=O)NN=C(C(Cl)(Cl)CO)C(Cl)(Cl)CO
assignedClass: -1

====

system: CEM cells HIV-1 protection, formazan growth assay; experiment: NCI AIDS Antiviral Assay; details: measured here: growth of uninfected CEM cells

givenSmiles: COc1cc2c(c3oc(=O)cc(-c4ccccc4)c13)C(=O)[C@H](C)[C@@H](C)O2
assaySystem: CEM cells HIV-1 protection, formazan growth assay
IC50: > 200 µM

givenSmiles: C1=C2/CC[C@H](Sc3ccccc3)[C@H]2C2(CCCCC/1)OCCO2
assaySystem: CEM cells HIV-1 protection, formazan growth assay
IC50: > 15.8 µM

givenSmiles: OC[C@H]1S[C@H](c2ccccc2)C[C@H]1O
assaySystem: CEM cells HIV-1 protection, formazan growth assay
IC50: > 200 µM

givenSmiles: NC(N)=NNC(O)(C(=O)O)C(=O)O
assaySystem: CEM cells HIV-1 protection, formazan growth assay
IC50: > 200 µM

givenSmiles: O=[N+]([O-])c1ccc(/C=C/c2c[n+]([O-])nc3ccccc23)cc1
assaySystem: CEM cells HIV-1 protection, formazan growth assay
IC50: > 200 µM

givenSmiles: NNC(=O)CC(=O)Nc1ccccc1Cl
assaySystem: CEM cells HIV-1 protection, formazan growth assay
IC50: > 200 µM

givenSmiles: O=C1C2=C(SCCS2)C(=O)c2c(Sc3ccc(Cl)cc3)c(Sc3ccc(Cl)cc3)c(Sc3ccc(Cl)cc3)c(Sc3ccc(Cl)cc3)c21
assaySystem: CEM cells HIV-1 protection, formazan growth assay
IC50: > 151 µM

givenSmiles: N#Cc1ccc(-c2nc3c(N)ncnc3o2)cc1
assaySystem: CEM cells HIV-1 protection, formazan growth assay
IC50: > 200 µM

====

EC50 values by entry
system: CEM cells HIV-1 protection, formazan growth assay; experiment: NCI AIDS Antiviral Assay

compound: Cc1coc2c1C1OC(=O)C3(C/C=C\C(C)C2)OC13 (stereo not given)
EC50: > 72.4 µM

compound: NC(=S)NNCC(=O)CC(O)(C(F)(F)F)C(F)(F)Cl (stereo not given)
EC50: > 200 µM

compound: COc1ccc(N=Nc2c(-c3c(OC)cc4occc4c3OC)[nH]c(=O)c(C#N)c2C)cc1
EC50: > 200 µM

compound: COc1cc(C2C(Cl)C(=O)N2NC(=O)c2ccc(N)cc2)cc(Br)c1O (stereo not given)
EC50: > 200 µM

compound: CC1(C)CCCC2(C)C1CCC1(C)OC3=CC(=O)C(O)=CC3=CC12 (stereo not given)
EC50: > 30.2 µM
